System: Escherichia coli W160-37
reportedProperty: MIC (µM)
Write it as a number; the unit µM goes unstated.

GET /values?readout=MIC&item= CC[C@H](C)[C@H](NC(=O)[C@H](Cc1c[nH]c2ccccc12)NC(=O)[C@H](CCCCN)NC(=O)[C@H](CC(C)C)NC(=O)[C@H](Cc1ccccc1)NC(=O)[C@H](CCCCN)NC(=O)[C@H](CC(C)C)NC(=O)[C@H](CC(C)C)NC(=O)[C@H](CCCCN)NC(=O)[C@@H]1CCCN1)C(=O)NCC(=O)O
31

* * *

Tested on: Pseudomonas aeruginosa
Assay: ≥ marks a high value that may be exact or a test limit, other limits are often not marked, values filed in µg/mL are converted to µM
I'd be grateful if you could share measured MIC for these entries.
Write it as a number; the unit µM goes unstated.

GET /values?readout=MIC&item= CC[C@H](C)[C@H](NC(=O)[C@H](CC(C)C)NC(=O)[C@H](CCCCN)NC(=O)[C@@H](NC(=O)[C@@H](NC(=O)[C@H](Cc1cnc[nH]1)NC(=O)[C@@H]1CCCN1C(=O)[C@H](CC(C)C)NC(=O)[C@@H](NC(=O)[C@H](CCCCN)NC(=O)[C@H](C)NC(=O)[C@H](CC(C)C)NC(=O)[C@H](CCCCN)NC(=O)[C@H](CO)NC(=O)[C@H](C)NC(=O)[C@H](CCSC)NC(=O)CN)C(C)C)C(C)C)C(C)C)C(=O)N[C@@H](CCCCN)C(=O)O
100

GET /values?readout=MIC&item= CC[C@H](C)[C@H](N)C(=O)N[C@H](C(=O)N[C@@H](CCCN=C(N)N)C(=O)N[C@H](C(=O)N[C@@H](C)C(=O)N[C@H](C(=O)N[C@@H](C)C(=O)N[C@@H](CC(C)C)C(=O)N[C@@H](CCCN=C(N)N)C(=O)N[C@@H](CCCN=C(N)N)C(=O)N[C@H](C(=O)N[C@@H](CCCN=C(N)N)C(N)=O)[C@@H](C)CC)C(C)C)C(C)C)C(C)C
51.3

Data origin, for the record: DBAASP
